reported.conditions: in ethanol, 286 K
recorded.metric: solubility (mole fraction)
A bare number is all that is needed in reply.

Q: Fill in the blank: the reported solubility (mole fraction) of CCCCCCCCCCCCCCCCCCC is ____.
A: 0.0016

====

reported.conditions: in n-heptane, 281.4 K
recorded.metric: solubility (mole fraction)
A bare number is all that is needed in reply.

Q: Fill in the blank: the reported solubility (mole fraction) of CCCCCCCCCCCCCCCCCC is ____.
A: 0.183

====

reported.conditions: in ethanol, 289.95 K
recorded.metric: solubility (mole fraction)
A bare number is all that is needed in reply.

Q: Fill in the blank: the reported solubility (mole fraction) of CCCCCCCCCCCCCCCCCCC is ____.
A: 0.0025

====

reported.conditions: in n-heptane, 286.55 K
recorded.metric: solubility (mole fraction)
A bare number is all that is needed in reply.

Q: Fill in the blank: the reported solubility (mole fraction) of CCCCCCCCCCCCCCCCCCC is ____.
A: 0.256

====

reported.conditions: in cyclohexane, 287.2 K
recorded.metric: solubility (mole fraction)
A bare number is all that is needed in reply.

Q: Fill in the blank: the reported solubility (mole fraction) of CCCCCCCCCCCCCCCCCC is ____.
A: 0.35

====

reported.conditions: in ethanol, 294.35 K
recorded.metric: solubility (mole fraction)
A bare number is all that is needed in reply.

Q: Fill in the blank: the reported solubility (mole fraction) of CCCCCCCCCCCCCCCCCC is ____.
A: 0.0072

====

reported.conditions: in n-heptane, 291.9 K
recorded.metric: solubility (mole fraction)
A bare number is all that is needed in reply.

Q: Fill in the blank: the reported solubility (mole fraction) of CCCCCCCCCCCCCCCCCC is ____.
A: 0.458

====

reported.conditions: in cyclohexane, 289.65 K
recorded.metric: solubility (mole fraction)
A bare number is all that is needed in reply.

Q: Fill in the blank: the reported solubility (mole fraction) of CCCCCCCCCCCCCCCCCCC is ____.
A: 0.359

====

reported.conditions: in n-heptane, 283.7 K
recorded.metric: solubility (mole fraction)
A bare number is all that is needed in reply.

Q: Fill in the blank: the reported solubility (mole fraction) of CCCCCCCCCCCCCCCCCC is ____.
A: 0.225

====

reported.conditions: in ethanol, 297.25 K
recorded.metric: solubility (mole fraction)
A bare number is all that is needed in reply.

Q: Fill in the blank: the reported solubility (mole fraction) of CCCCCCCCCCCCCCCCCCC is ____.
A: 0.0062

====

reported.conditions: in cyclohexane, 286.65 K
recorded.metric: solubility (mole fraction)
A bare number is all that is needed in reply.

Q: Fill in the blank: the reported solubility (mole fraction) of CCCCCCCCCCCCCCCCCCC is ____.
A: 0.29

====

reported.conditions: in ethanol, 292.45 K
recorded.metric: solubility (mole fraction)
A bare number is all that is needed in reply.

Q: Fill in the blank: the reported solubility (mole fraction) of CCCCCCCCCCCCCCCCCCC is ____.
A: 0.0035

====

reported.conditions: in cyclohexane, 284.35 K
recorded.metric: solubility (mole fraction)
A bare number is all that is needed in reply.

Q: Fill in the blank: the reported solubility (mole fraction) of CCCCCCCCCCCCCCCCCC is ____.
A: 0.265

====

reported.conditions: in ethanol, 296.2 K
recorded.metric: solubility (mole fraction)
A bare number is all that is needed in reply.

Q: Fill in the blank: the reported solubility (mole fraction) of CCCCCCCCCCCCCCCCCC is ____.
A: 0.0093

====

reported.conditions: in n-heptane, 290.15 K
recorded.metric: solubility (mole fraction)

Q: Fill in the blank: the reported solubility (mole fraction) of CCCCCCCCCCCCCCCCCC is ____.
A: 0.393

====

reported.conditions: in n-heptane, 296.95 K
recorded.metric: solubility (mole fraction)
A bare number is all that is needed in reply.

Q: Fill in the blank: the reported solubility (mole fraction) of CCCCCCCCCCCCCCCCCCC is ____.
A: 0.611

====

reported.conditions: in cyclohexane, 282.25 K
recorded.metric: solubility (mole fraction)
A bare number is all that is needed in reply.

Q: Fill in the blank: the reported solubility (mole fraction) of CCCCCCCCCCCCCCCCCCC is ____.
A: 0.201

====

reported.conditions: in n-heptane, 290.95 K
recorded.metric: solubility (mole fraction)
A bare number is all that is needed in reply.

Q: Fill in the blank: the reported solubility (mole fraction) of CCCCCCCCCCCCCCCCCCC is ____.
A: 0.393

====

reported.conditions: in cyclohexane, 290.95 K
recorded.metric: solubility (mole fraction)
A bare number is all that is needed in reply.

Q: Fill in the blank: the reported solubility (mole fraction) of CCCCCCCCCCCCCCCCCC is ____.
A: 0.445
